Molecular target: UniProtKB Q62120
Sequence (Q62120 whole entry): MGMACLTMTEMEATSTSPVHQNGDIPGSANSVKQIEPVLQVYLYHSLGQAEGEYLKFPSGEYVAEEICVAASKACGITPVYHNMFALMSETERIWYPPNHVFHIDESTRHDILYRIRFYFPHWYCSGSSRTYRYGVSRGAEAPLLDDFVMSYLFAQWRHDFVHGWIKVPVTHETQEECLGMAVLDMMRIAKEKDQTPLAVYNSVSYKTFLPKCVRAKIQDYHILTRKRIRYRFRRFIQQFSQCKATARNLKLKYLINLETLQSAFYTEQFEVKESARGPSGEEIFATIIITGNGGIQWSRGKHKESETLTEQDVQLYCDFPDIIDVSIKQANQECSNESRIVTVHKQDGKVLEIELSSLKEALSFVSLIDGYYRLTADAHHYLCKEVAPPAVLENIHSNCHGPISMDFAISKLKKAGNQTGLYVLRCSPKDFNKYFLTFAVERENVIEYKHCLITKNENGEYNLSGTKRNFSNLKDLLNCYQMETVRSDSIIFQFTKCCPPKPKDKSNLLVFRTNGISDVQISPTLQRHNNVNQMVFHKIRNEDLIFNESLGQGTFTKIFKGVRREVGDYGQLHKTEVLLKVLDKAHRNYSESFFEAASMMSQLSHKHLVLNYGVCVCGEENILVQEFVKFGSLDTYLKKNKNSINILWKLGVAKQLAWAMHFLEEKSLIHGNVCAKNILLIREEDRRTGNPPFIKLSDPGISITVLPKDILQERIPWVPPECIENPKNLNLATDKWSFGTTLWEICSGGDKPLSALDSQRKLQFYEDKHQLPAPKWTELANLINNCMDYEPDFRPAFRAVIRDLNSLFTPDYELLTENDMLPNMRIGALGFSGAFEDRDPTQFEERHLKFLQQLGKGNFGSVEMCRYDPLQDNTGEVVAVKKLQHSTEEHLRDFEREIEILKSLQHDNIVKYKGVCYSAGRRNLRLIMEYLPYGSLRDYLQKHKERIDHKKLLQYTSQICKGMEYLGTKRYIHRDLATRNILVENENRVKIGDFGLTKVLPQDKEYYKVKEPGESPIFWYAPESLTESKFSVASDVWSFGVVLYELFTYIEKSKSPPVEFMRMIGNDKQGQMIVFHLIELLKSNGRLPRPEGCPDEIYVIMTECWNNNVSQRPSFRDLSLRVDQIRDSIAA
Test: Inhibition of IL-3 stimulated wild type JAK2-mediated signalling in mouse BaF3 cells preincubated with compound for 5 hrs followed by IL-3 stimulation and measured after 20 mins by Alphascreen SureFire assay
MEASUREMENT_KIND: IC50
Answers without a unit are incomplete; give the number and then its unit.

Exam item: Could you please provide reported IC50 for Cc1cc(Nc2cc(CN3CCOCC3)c3nc(C)c(Cc4ccc(Cl)cc4F)n3n2)n[nH]1 [GANDOTINIB] ? Thanks!
Marked response: 1180 nM

###

Molecular target: Tyrosine-protein kinase JAK3 (Homo sapiens)
Sequence (P52333 whole entry): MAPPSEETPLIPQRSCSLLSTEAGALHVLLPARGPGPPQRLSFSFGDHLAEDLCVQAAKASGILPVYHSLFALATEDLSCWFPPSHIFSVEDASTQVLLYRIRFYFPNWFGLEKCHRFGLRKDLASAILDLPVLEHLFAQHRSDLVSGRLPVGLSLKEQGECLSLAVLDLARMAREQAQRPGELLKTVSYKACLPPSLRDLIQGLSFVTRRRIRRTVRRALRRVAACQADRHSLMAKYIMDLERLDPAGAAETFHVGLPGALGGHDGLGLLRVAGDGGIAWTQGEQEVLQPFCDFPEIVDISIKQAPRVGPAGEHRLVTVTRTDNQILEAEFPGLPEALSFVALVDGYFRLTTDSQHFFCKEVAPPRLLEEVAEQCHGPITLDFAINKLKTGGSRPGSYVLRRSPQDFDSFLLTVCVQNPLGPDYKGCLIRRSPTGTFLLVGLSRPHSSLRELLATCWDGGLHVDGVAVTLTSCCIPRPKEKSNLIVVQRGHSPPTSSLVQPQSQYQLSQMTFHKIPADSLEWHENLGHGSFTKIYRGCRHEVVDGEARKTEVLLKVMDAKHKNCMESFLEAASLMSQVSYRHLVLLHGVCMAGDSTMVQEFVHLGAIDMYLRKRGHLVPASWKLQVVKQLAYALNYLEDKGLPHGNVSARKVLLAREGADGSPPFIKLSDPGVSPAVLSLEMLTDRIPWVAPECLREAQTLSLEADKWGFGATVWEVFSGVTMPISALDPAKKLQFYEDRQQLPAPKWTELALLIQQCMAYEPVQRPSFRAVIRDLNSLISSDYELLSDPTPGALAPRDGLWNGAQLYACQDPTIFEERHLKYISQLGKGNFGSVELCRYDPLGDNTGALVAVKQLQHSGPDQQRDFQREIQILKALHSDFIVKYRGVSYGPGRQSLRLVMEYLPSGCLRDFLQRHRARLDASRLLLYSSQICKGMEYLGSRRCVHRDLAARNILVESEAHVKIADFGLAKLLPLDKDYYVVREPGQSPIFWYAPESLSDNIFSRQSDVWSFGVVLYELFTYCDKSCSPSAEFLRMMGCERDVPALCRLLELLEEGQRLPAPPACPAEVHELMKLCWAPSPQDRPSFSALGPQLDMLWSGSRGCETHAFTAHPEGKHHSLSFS
Assay: Inhibition of recombinant human JAK3 (781 to 1124 residues)
MEASUREMENT_KIND: IC50 (nM)
Numbers only, in nM.

Exam item: Could you please provide reported IC50 for CNS(=O)(=O)C[C@H]1CC[C@H](N(C)c2ncnc3[nH]ccc23)CC1 [OCLACITINIB] ? Thanks!
Marked response: 99

###

Assay: Inhibition of STAT5 phosphorylation in IL-2 stimulated mouse HT-2 cells
Format: cell-based
Settings: HT2
MEASUREMENT_KIND: IC50

Exam item: Could you please provide reported IC50 for CC[C@@](C)(Nc1ccnc(-c2c[nH]c3ncccc23)n1)C(=O)NCC(F)(F)F ? Thanks!
Marked response: 50 nM
